System: Balamuthia mandrillaris (ATCC PRA-291) trophozoites, axenic culture
Experiment: primary screen, b score
Conditions: 20 µM
The full ranking holds about 2,000 compounds; the median of “B-score” is about -0.0024, and the highest 2% start at about 4. The sample as a whole holds a higher share of the highest values than the screen did.
experimental.readout: B-score
Numbers only.

Examples with their reported B-score follow.
- smiles.record: "O=C1C[C@@H]2OCC=C3CN4CC[C@]56c7ccccc7N1[C@H]5[C@H]2[C@H]3C[C@H]46"
  numeric.readout: 0.0173
- smiles.record: "[N-]=[N+]=CC(=O)OC[C@H](N)C(=O)O"
  numeric.readout: 4.05
- smiles.record: "CC(=O)O[C@H]1C[C@H](O[C@H]2[C@@H](O)C[C@H](O[C@H]3[C@@H](O)C[C@H](O[C@H]4CC[C@@]5(C)[C@H](CC[C@@H]6[C@@H]5C[C@@H](O)[C@]5(C)[C@@H](C7=CC(=O)OC7)CC[C@]65O)C4)O[C@@H]3C)O[C@@H]2C)O[C@H](C)[C@H]1O[C@@H]1O[C@H](CO)[C@@H](O)[C@H](O)[C@H]1O"
  numeric.readout: 0.168

# input Give the measured B-score of "CC(C)C[C@H](CN)CC(=O)O" .
# output 1.41
